TARGET ENTITY: BcsE (Escherichia coli)
Sequence (P37657 whole entry): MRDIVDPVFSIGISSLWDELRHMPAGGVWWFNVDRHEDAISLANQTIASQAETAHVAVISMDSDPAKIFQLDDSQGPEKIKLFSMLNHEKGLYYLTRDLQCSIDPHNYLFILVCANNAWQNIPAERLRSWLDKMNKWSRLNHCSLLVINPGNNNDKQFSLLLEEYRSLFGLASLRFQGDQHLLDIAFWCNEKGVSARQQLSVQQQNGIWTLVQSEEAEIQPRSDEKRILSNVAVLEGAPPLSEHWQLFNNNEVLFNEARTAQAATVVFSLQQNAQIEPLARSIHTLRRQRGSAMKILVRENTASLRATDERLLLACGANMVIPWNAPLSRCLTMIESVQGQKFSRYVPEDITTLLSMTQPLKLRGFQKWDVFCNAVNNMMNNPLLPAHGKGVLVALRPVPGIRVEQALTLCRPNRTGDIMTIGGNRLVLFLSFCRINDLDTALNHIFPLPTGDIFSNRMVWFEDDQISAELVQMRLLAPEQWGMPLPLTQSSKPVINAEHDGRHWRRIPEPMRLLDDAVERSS
QUANTITY KIND: pKd
The scale used: pKd is minus the common logarithm of the concentration in molar units.

Form: Entry = Nc1nc2c(ncn2[C@@H]2O[C@@H]3COP(=O)(O)O[C@H]4[C@@H](O)[C@H](n5cnc6c(=O)[nH]c(N)nc65)O[C@@H]4COP(=O)(O)O[C@H]3[C@H]2O)c(=O)[nH]1 | System = BcsE (Escherichia coli) | pKd = ____
5.62
